Assignment: determine reported IC50 for the given molecules.
# measured target: MRP4 (Homo sapiens)
# Construct: host or cells: HEK293 (membrane vesicles)
# Sequence (O15439 whole entry): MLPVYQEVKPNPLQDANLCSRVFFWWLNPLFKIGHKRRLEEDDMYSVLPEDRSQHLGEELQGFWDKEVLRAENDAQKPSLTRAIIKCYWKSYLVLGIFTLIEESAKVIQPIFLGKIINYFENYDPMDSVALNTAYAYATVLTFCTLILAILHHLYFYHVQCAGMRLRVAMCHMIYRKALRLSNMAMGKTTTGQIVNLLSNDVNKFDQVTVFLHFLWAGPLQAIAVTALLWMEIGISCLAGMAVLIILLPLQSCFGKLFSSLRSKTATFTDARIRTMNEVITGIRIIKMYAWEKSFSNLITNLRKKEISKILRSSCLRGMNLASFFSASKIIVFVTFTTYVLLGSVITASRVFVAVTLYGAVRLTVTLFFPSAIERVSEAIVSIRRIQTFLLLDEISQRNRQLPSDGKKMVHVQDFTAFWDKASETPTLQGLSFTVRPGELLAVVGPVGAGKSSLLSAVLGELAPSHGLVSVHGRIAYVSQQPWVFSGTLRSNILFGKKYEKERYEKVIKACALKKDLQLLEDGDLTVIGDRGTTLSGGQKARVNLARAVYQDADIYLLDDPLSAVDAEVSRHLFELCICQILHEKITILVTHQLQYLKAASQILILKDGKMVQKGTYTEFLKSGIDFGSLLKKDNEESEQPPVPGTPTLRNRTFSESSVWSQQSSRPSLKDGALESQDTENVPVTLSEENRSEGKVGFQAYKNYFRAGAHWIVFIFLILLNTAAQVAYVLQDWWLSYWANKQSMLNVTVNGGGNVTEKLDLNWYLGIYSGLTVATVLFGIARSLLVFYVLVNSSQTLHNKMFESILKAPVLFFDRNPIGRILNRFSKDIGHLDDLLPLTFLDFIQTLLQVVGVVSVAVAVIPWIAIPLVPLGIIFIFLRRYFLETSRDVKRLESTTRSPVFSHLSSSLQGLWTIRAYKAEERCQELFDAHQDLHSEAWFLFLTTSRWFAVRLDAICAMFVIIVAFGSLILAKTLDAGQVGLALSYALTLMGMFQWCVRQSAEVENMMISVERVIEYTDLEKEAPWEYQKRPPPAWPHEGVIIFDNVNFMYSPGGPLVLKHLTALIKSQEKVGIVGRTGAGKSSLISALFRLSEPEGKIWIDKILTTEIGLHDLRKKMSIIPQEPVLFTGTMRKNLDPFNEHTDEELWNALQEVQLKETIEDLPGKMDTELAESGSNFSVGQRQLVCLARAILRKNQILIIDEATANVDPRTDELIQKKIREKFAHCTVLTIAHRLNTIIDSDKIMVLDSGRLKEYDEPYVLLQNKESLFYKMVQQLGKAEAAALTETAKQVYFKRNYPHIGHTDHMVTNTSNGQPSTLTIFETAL
# assay name: Vesicular transport inhibition assay, MRP4
# Type: biochemical
# condition label: membrane vesicles from HEK293 cells
Structures can show the parent of a compound that is named as a salt.
Return type: number; implicit unit µM.

Challenge: What value of IC50 has been reported for the following molecule? Cc1cc(OCCCS(C)(=O)=O)cc(C)c1-c1cccc(COc2ccc3c(c2)OC[C@H]3CC(=O)O)c1 [Example R1, reference compound]
Response given: 6.9

Challenge: Endpoint output: IC50 of CC#C[C@@H](CC(=O)O)c1ccc(OCC(C)=C(C)C)cc1 [Example S1, calcium salt] . Value?
Response given: 131
